- experiment.summary: AUC (0 to 24 hrs) in male Sprague-Dawley rat at 14 mg/kg, ip measured after 24 hrs by LC/MS-MS analysis
- Format: ADME, organism-based
- condition.context: in vivo

| chemical.structure | AUC(0-t) at 24 h |
| --- | --- |
| Cc1ncsc1-c1ccc([C@@H](C)NC(=O)[C@H]2C[C@H](O)CN2C(=O)[C@H](NC(=O)COCCOCCOCCNC(=O)c2ccc(C(=O)N3CCC(CCCCNC(=O)/C=C/c4cccnc4)CC3)cc2)C(C)(C)C)cc1 | 919 ng·h/mL |

----------
- tested.system: Protein cereblon/Nicotinamide phosphoribosyltransferase (Homo sapiens) (UniProt P43490+Q96SW2)
- Sequence (P43490 whole entry, looked up): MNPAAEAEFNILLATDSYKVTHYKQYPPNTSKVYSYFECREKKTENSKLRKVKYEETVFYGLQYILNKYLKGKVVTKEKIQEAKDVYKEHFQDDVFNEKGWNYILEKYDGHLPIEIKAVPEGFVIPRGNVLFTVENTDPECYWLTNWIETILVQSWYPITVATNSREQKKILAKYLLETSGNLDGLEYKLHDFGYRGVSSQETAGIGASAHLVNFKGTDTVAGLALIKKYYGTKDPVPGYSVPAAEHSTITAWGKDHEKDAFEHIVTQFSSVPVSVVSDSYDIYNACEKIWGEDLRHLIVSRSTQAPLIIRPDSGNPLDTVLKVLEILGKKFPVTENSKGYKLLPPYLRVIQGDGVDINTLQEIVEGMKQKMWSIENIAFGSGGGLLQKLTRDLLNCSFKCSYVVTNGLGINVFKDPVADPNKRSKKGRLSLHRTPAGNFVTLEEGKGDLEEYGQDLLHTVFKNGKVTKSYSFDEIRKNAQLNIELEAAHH
- Sequence (Q96SW2 whole entry, looked up): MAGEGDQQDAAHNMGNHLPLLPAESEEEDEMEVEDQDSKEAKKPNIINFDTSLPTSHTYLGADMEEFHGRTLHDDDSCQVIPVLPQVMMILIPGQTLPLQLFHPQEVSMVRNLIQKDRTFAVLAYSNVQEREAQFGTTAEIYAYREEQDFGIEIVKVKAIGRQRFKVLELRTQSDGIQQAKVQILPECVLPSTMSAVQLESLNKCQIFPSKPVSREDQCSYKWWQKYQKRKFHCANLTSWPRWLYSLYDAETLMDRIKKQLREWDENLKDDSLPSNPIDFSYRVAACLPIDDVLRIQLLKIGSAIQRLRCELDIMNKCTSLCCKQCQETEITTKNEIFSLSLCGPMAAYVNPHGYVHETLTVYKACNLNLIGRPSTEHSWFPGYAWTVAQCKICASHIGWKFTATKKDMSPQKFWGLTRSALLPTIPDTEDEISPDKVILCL
- experiment.summary: PROTAC activity at CRBN/NAMPT in human SK-OV-3 cells assessed as induction of intracellular NAMPT degradation at 0.5 uM incubated for 24 hrs by Western blot analysis relative to control
- Type: cell-based

| compound | unit.string | Activity |
| --- | --- | --- |
| O=C(/C=C/c1cccnc1)NCCCCC1CCN(C(=O)c2ccc(C(=O)NCCCCNc3cccc4c3C(=O)N(C3CCC(=O)NC3=O)C4=O)cc2)CC1 (stereo not drawn) | % | 0 |
| O=C(/C=C/c1cccnc1)NCCCCC1CCN(C(=O)c2ccc(C(=O)NCCCCCc3cccc4c3CN(C3CCC(=O)NC3=O)C4=O)cc2)CC1 (stereo not drawn) | % | 0 |
| O=C(/C=C/c1cccnc1)NCCCCC1CCN(C(=O)c2ccc(NC(=O)COCCOCCOCCNc3cccc4c3C(=O)N(C3CCC(=O)NC3=O)C4=O)cc2)CC1 (stereo not drawn) | % | 0 |

----------
- tested.system: Protein cereblon/Nicotinamide phosphoribosyltransferase (Homo sapiens) (UniProt P43490+Q96SW2)
- experiment.summary: PROTAC activity at CRBN/NAMPT in human SK-OV-3 cells assessed as induction of intracellular NAMPT degradation at 0.5 uM incubated for 24 hrs by Western blot analysis relative to control
- Format: cell-based
The following molecules are listed with their measured Activity values.
test.readout: Activity (%)

| molecule | test.value |
| --- | --- |
| O=C(/C=C/c1cccnc1)NCCCCC1CCN(C(=O)c2ccc(NC(=O)COCCOCCOCCOCCNc3cccc4c3C(=O)N(C3CCC(=O)NC3=O)C4=O)cc2)CC1 (stereo not drawn) | 0 |
| O=C(/C=C/c1cccnc1)NCCCCC1CCN(C(=O)c2ccc(NC(=O)CCOCCOCCOCCOCCNc3cccc4c3C(=O)N(C3CCC(=O)NC3=O)C4=O)cc2)CC1 (stereo not drawn) | 0 |
| O=C(/C=C/c1cccnc1)NCCCCC1CCN(C(=O)c2ccc(C(=O)NCc3cn(CCOCCNc4cccc5c4C(=O)N(C4CCC(=O)NC4=O)C5=O)nn3)cc2)CC1 (stereo not drawn) | 25 |

----------
- experiment.summary: Tmax in male Sprague-Dawley rat at 14 mg/kg, ip measured after 24 hrs by LC/MS-MS analysis
- Type: ADME, organism-based
- condition.context: in vivo

| chemical.structure | Tmax [h] |
| --- | --- |
| Cc1ncsc1-c1ccc([C@@H](C)NC(=O)[C@H]2C[C@H](O)CN2C(=O)[C@H](NC(=O)COCCOCCOCCNC(=O)c2ccc(C(=O)N3CCC(CCCCNC(=O)/C=C/c4cccnc4)CC3)cc2)C(C)(C)C)cc1 | 1 |

----------
Documented Activity across a set of compounds
- tested.system: Protein cereblon/Nicotinamide phosphoribosyltransferase (Homo sapiens) (UniProt P43490+Q96SW2)
- experiment.summary: PROTAC activity at CRBN/NAMPT in human SK-OV-3 cells assessed as induction of intracellular NAMPT degradation at 0.5 uM incubated for 24 hrs by Western blot analysis relative to control
- Type: cell-based

| compound | unit.string | Activity |
| --- | --- | --- |
| O=C(/C=C/c1cccnc1)NCCCCC1CCN(C(=O)c2ccc(C(=O)NCc3cn(CCOCCOCCNc4cccc5c4C(=O)N(C4CCC(=O)NC4=O)C5=O)nn3)cc2)CC1 (stereo not drawn) | % | 0 |
| O=C(/C=C/c1cccnc1)NCCCCC1CCN(C(=O)c2ccc(C(=O)NCCNc3cccc4c3C(=O)N(C3CCC(=O)NC3=O)C4=O)cc2)CC1 (stereo not drawn) | % | 0 |
| O=C(/C=C/c1cccnc1)NCCCCC1CCN(C(=O)c2ccc(C(=O)NCCCCCCNc3cccc4c3C(=O)N(C3CCC(=O)NC3=O)C4=O)cc2)CC1 (stereo not drawn) | % | 0 |

----------
- tested.system: Protein cereblon/Nicotinamide phosphoribosyltransferase (Homo sapiens) (UniProt P43490+Q96SW2)
- experiment.summary: PROTAC activity at CRBN/NAMPT in human SK-OV-3 cells assessed as induction of intracellular NAMPT degradation at 5 uM incubated for 24 hrs by Western blot analysis relative to control
- Assay type: cell-based

| compound | unit.string | Activity |
| --- | --- | --- |
| O=C(/C=C/c1cccnc1)NCCCCC1CCN(C(=O)c2ccc(C(=O)NCc3cn(CCOCCNc4cccc5c4C(=O)N(C4CCC(=O)NC4=O)C5=O)nn3)cc2)CC1 (stereo not given) | % | 30 |
| O=C(/C=C/c1cccnc1)NCCCCC1CCN(C(=O)c2ccc(C(=O)NCCCCCNc3cccc4c3C(=O)N(C3CCC(=O)NC3=O)C4=O)cc2)CC1 (stereo not given) | % | 0 |
| O=C(/C=C/c1cccnc1)NCCCCC1CCN(C(=O)c2ccc(C(=O)NCCNc3cccc4c3C(=O)N(C3CCC(=O)NC3=O)C4=O)cc2)CC1 (stereo not given) | % | 11 |
| O=C(/C=C/c1cccnc1)NCCCCC1CCN(C(=O)c2ccc(NC(=O)COCCOCCNc3cccc4c3C(=O)N(C3CCC(=O)NC3=O)C4=O)cc2)CC1 (stereo not given) | % | 0 |
| O=C(/C=C/c1cccnc1)NCCCCC1CCN(C(=O)c2ccc(NC(=O)CCOCCOCCOCCOCCNc3cccc4c3C(=O)N(C3CCC(=O)NC3=O)C4=O)cc2)CC1 (stereo not given) | % | 0 |
| O=C(/C=C/c1cccnc1)NCCCCC1CCN(C(=O)c2ccc(C(=O)NCCCCCCNc3cccc4c3C(=O)N(C3CCC(=O)NC3=O)C4=O)cc2)CC1 (stereo not given) | % | 0 |
| O=C(/C=C/c1cccnc1)NCCCCC1CCN(C(=O)c2ccc(C(=O)NCCCCNc3cccc4c3C(=O)N(C3CCC(=O)NC3=O)C4=O)cc2)CC1 (stereo not given) | % | 22 |
| O=C(/C=C/c1cccnc1)NCCCCC1CCN(C(=O)c2ccc(C(=O)NCc3cn(CCOCCOCCOCCOCCNc4cccc5c4C(=O)N(C4CCC(=O)NC4=O)C5=O)nn3)cc2)CC1 (stereo not given) | % | 27 |
| O=C(/C=C/c1cccnc1)NCCCCC1CCN(C(=O)c2ccc(C(=O)NCc3cn(CCOCCOCCOCCNc4cccc5c4C(=O)N(C4CCC(=O)NC4=O)C5=O)nn3)cc2)CC1 (stereo not given) | % | 20 |
| O=C(/C=C/c1cccnc1)NCCCCC1CCN(C(=O)c2ccc(NC(=O)COCCOCCOCCOCCNc3cccc4c3C(=O)N(C3CCC(=O)NC3=O)C4=O)cc2)CC1 (stereo not given) | % | 0 |
| O=C(/C=C/c1cccnc1)NCCCCC1CCN(C(=O)c2ccc(C(=O)NCc3cn(CCOCCOCCNc4cccc5c4C(=O)N(C4CCC(=O)NC4=O)C5=O)nn3)cc2)CC1 (stereo not given) | % | 0 |
| O=C(/C=C/c1cccnc1)NCCCCC1CCN(C(=O)c2ccc(NC(=O)COCCOCCOCCNc3cccc4c3C(=O)N(C3CCC(=O)NC3=O)C4=O)cc2)CC1 (stereo not given) | % | 0 |
| O=C(/C=C/c1cccnc1)NCCCCC1CCN(C(=O)c2ccc(C(=O)NCCCNc3cccc4c3C(=O)N(C3CCC(=O)NC3=O)C4=O)cc2)CC1 (stereo not given) | % | 0 |
| O=C(/C=C/c1cccnc1)NCCCCC1CCN(C(=O)c2ccc(C(=O)NCc3cn(CCOCCOCCOCCOCCOCCNc4cccc5c4C(=O)N(C4CCC(=O)NC4=O)C5=O)nn3)cc2)CC1 (stereo not given) | % | 52 |
| O=C(/C=C/c1cccnc1)NCCCCC1CCN(C(=O)c2ccc(C(=O)NCCCCCc3cccc4c3CN(C3CCC(=O)NC3=O)C4=O)cc2)CC1 (stereo not given) | % | 0 |

----------
- tested.system: Protein cereblon/Nicotinamide phosphoribosyltransferase (Homo sapiens) (UniProt P43490+Q96SW2)
- experiment.summary: PROTAC activity at CRBN/NAMPT in human SK-OV-3 cells assessed as induction of intracellular NAMPT degradation at 0.5 uM incubated for 24 hrs by Western blot analysis relative to control
- Format: cell-based
Kindly return fulfilled if reported Activity is no lower than 30%; return not fulfilled if it is lower.

| compound | label.class |
| --- | --- |
| O=C(/C=C/c1cccnc1)NCCCCC1CCN(C(=O)c2ccc(C(=O)NCc3cn(CCOCCOCCOCCOCCNc4cccc5c4C(=O)N(C4CCC(=O)NC4=O)C5=O)nn3)cc2)CC1 (stereo unspecified) | fulfilled |
| O=C(/C=C/c1cccnc1)NCCCCC1CCN(C(=O)c2ccc(NC(=O)COCCOCCNc3cccc4c3C(=O)N(C3CCC(=O)NC3=O)C4=O)cc2)CC1 (stereo unspecified) | not fulfilled |
| O=C(/C=C/c1cccnc1)NCCCCC1CCN(C(=O)c2ccc(C(=O)NCCCNc3cccc4c3C(=O)N(C3CCC(=O)NC3=O)C4=O)cc2)CC1 (stereo unspecified) | not fulfilled |
| O=C(/C=C/c1cccnc1)NCCCCC1CCN(C(=O)c2ccc(C(=O)NCc3cn(CCOCCOCCOCCNc4cccc5c4C(=O)N(C4CCC(=O)NC4=O)C5=O)nn3)cc2)CC1 (stereo unspecified) | fulfilled |
| O=C(/C=C/c1cccnc1)NCCCCC1CCN(C(=O)c2ccc(C(=O)NCCCCCNc3cccc4c3C(=O)N(C3CCC(=O)NC3=O)C4=O)cc2)CC1 (stereo unspecified) | not fulfilled |
| O=C(/C=C/c1cccnc1)NCCCCC1CCN(C(=O)c2ccc(C(=O)NCc3cn(CCOCCOCCOCCOCCOCCNc4cccc5c4C(=O)N(C4CCC(=O)NC4=O)C5=O)nn3)cc2)CC1 (stereo unspecified) | fulfilled |
